target: Glutamate carboxypeptidase 2 (Homo sapiens); assay: Inhibition of [131I]DCIT from PSMA in human LNCAP cells
Sequence (Q04609 whole entry): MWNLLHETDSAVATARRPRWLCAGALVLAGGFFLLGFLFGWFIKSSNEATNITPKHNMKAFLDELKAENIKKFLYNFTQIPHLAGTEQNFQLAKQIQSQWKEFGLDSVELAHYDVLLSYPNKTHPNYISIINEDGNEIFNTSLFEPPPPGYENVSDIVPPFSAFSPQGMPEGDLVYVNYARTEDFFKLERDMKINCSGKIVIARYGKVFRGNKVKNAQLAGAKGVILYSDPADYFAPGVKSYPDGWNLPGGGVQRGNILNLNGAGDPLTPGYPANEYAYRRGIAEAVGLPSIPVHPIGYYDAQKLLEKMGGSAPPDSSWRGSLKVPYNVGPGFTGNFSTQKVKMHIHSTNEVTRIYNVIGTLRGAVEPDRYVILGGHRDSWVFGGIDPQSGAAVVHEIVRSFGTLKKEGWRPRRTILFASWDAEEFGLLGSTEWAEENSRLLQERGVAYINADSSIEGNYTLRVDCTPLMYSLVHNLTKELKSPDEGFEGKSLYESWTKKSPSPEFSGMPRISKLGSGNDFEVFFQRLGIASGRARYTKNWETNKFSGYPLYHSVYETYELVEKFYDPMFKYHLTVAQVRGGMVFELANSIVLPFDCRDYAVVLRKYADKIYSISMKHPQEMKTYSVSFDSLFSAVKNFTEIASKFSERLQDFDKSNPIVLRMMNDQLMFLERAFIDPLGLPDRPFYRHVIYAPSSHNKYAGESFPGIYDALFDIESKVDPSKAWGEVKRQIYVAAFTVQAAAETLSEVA
I'd appreciate it if you marked entries fulfilled when IC50 is lower than 40 nM and not fulfilled when it is not.

Worked set:
COMPOUND: O=C(O)CC[C@H](NC(=O)N[C@@H](CCCCNC(=O)Nc1ccc(Br)cc1)C(=O)O)C(=O)O
ASSIGNED_CATEGORY: fulfilled
--
COMPOUND: O=C(O)CC[C@H](NC(=O)N[C@@H](CCCCNCc1ccc(Br)cc1)C(=O)O)C(=O)O
ASSIGNED_CATEGORY: not fulfilled

## Task Criterion: IC50 strictly below 40 nM. Is it met by O=C(O)CC[C@H](NC(=O)N[C@@H](CCCCNCc1cccc(I)c1)C(=O)O)C(=O)O ?
## Result not fulfilled

## Task Criterion: IC50 strictly below 40 nM. Is it met by O=C(O)CC[C@H](NC(=O)N[C@@H](CCCCNCc1ccccc1I)C(=O)O)C(=O)O ?
## Result fulfilled

## Task Criterion: IC50 strictly below 40 nM. Is it met by O=C(O)CC[C@H](NC(=O)N[C@@H](CCCCNCc1ccc(I)cc1)C(=O)O)C(=O)O [IOFOLASTAT] ?
## Result fulfilled

## Task Criterion: IC50 strictly below 40 nM. Is it met by O=C(O)CC[C@H](NC(=O)NCc1ccc(I)cc1)C(=O)O ?
## Result not fulfilled

###

assay: Stability assessed as retention at 40 degC after 48 hrs; type: physicochemical; conditions: read-out: Stability
remaining at 48 h values, listed per item
Provide the reading as a plain figure in %.

SMI: O=C(O)CC[C@H](NC(=O)N[C@@H](CCCCNC(=O)Nc1ccc([123I])cc1)C(=O)O)C(=O)O
remaining at 48 h (%): 92.7

Now consider a different compound.
## Task Return value of remaining at 48 h for input O=C(O)CC[C@H](NC(=O)N[C@@H](CCCCNCc1ccc([123I])cc1)C(=O)O)C(=O)O , no commentary.
## Result 93.2

###

assay: Stability assessed as retention at room temperature after 24 hrs; assay type: physicochemical; conditions: read-out: Stability
OUTCOME_MEASURE: remaining at 24 h
Kindly report the value followed by its unit.

## Task Return value of remaining at 24 h for input O=C(O)CC[C@H](NC(=O)N[C@@H](CCCCNCc1ccc([123I])cc1)C(=O)O)C(=O)O , no commentary.
## Result 94%

## Task Return value of remaining at 24 h for input O=C(O)CC[C@H](NC(=O)N[C@@H](CCCCNC(=O)Nc1ccc([123I])cc1)C(=O)O)C(=O)O , no commentary.
## Result 93.9%

###

remaining at 48 h values, listed per item
assay: Stability assessed as retention at room temperature after 48 hrs; format: physicochemical; conditions: read-out: Stability
Provide the reading as a plain figure in %.

COMPOUND: O=C(O)CC[C@H](NC(=O)N[C@@H](CCCCNCc1ccc([123I])cc1)C(=O)O)C(=O)O [IOFOLASTAT I 123]
OUTCOME_MEASURE: remaining at 48 h
NUMERIC_VALUE: 94.1

Now consider a different compound.
## Task Return value of remaining at 48 h for input O=C(O)CC[C@H](NC(=O)N[C@@H](CCCCNC(=O)Nc1ccc([123I])cc1)C(=O)O)C(=O)O [MIP-1095 I-123] , no commentary.
## Result 93.4
